SYSTEM UNDER TEST: Beta-glucuronidase (Rattus norvegicus, UniProt P06760)
Sequence (P06760 whole entry): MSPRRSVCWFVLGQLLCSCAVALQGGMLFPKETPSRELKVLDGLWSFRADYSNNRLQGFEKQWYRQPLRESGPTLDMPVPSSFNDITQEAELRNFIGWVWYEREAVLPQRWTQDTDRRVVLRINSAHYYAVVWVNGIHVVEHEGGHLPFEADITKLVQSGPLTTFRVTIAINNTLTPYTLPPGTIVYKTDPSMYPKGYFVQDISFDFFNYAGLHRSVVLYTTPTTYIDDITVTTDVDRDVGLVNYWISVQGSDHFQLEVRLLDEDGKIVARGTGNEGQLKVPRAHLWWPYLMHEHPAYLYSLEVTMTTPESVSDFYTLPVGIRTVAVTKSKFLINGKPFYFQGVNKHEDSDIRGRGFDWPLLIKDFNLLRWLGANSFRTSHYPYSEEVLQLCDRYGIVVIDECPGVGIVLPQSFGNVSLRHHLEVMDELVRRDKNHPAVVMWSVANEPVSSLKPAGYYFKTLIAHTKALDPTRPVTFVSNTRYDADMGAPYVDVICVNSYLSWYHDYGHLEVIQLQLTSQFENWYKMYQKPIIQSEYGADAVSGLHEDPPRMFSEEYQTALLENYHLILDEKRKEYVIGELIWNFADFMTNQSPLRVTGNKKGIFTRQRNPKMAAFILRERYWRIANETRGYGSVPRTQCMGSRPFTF
PROCEDURE TEXT: Inhibition of degranulated rat peritoneal mast cells beta-glucuronidase
READOUT TYPE: pIC50
pIC50 (log units): -log10 of the concentration in mol/L.

Given the compound "COc1cc(/C=C/C(=O)OC/C(C)=C\Cc2c(O)ccc(C(=O)/C=C/c3ccc(O)cc3)c2O)ccc1O" , what is its reported pIC50?
4.15

* * *

SYSTEM UNDER TEST: Beta-glucuronidase (Homo sapiens, UniProt P08236)
Sequence (P08236 whole entry): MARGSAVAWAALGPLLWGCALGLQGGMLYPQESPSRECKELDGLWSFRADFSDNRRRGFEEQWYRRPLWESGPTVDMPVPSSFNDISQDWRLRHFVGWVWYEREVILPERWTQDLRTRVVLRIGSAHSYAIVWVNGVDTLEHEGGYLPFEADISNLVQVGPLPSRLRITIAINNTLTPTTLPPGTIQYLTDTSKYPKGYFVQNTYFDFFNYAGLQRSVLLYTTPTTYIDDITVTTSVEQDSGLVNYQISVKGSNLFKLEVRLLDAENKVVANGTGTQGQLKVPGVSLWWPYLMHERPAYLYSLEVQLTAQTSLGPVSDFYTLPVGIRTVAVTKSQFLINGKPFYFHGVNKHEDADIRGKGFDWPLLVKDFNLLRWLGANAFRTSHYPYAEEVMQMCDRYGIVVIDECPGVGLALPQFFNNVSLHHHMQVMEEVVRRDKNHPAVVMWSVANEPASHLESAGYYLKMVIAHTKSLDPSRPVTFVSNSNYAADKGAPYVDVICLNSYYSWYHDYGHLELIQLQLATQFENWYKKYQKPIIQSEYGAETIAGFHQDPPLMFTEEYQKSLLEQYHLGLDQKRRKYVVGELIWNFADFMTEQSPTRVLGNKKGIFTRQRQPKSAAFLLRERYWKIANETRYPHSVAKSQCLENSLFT
READOUT TYPE: IC50 (µM)
Respond with the bare value in µM.

Given the molecule "COc1cc([C@@H]2Oc3cc([C@H]4Oc5cc(O)cc(O)c5C(=O)[C@@H]4O)ccc3O[C@H]2CO)ccc1O" , what is its reported IC50?
1640
